Origin of measurements: paper PMC5540273

Exercise: for every item that follows, state its recorded %Inh.
- System: SRMS
- applied_conditions: concentration: 1 μM,replicates: in singlicate; n = 1

For orientation, consider the following solved cases.
>  <compound>
CN(C)CC(O)COc1ccc(Nc2nccc(-c3cnn4nc(N5CCOCC5)ccc34)n2)cc1 (stereo not drawn)

>  <system>
SRMS

>  <%Inh>
100%

$$$$
>  <compound>
C[C@@H]1CCN(C(=O)CC#N)C[C@@H]1N(C)c1ncnc2[nH]ccc12

>  <system>
SRMS

>  <%Inh>
0%

$$$$
>  <compound>
C[C@H]1Oc2cc(cnc2N)-c2c(nn(C)c2C#N)CN(C)C(=O)c2ccc(F)cc21

>  <system>
SRMS

>  <%Inh>
0%

$$$$
>  <compound>
CN(C)CCOc1ccc(-c2cc(-c3c[nH]nc3-c3ccccn3)ccn2)cc1

>  <system>
SRMS

>  <%Inh>
0%

$$$$
>  <compound>
Cl.Cl.NC[C@H](CC1CCCCC1)NC(=O)c1cc(Br)c(-c2ccnc3[nH]ccc23)s1

>  <system>
SRMS

>  <%Inh>
0%

$$$$
>  <compound>
Cl.Oc1cc(-c2nc(-c3ccccc3)[nH]c2-c2ccncc2)ccc1Cl

>  <system>
SRMS

>  <%Inh>
12%

$$$$
>  <compound>
COc1ccc(C[C@@H](CN)NC(=O)c2cc(Br)c(-c3ccnc4[nH]ccc34)s2)cc1.Cl.Cl

>  <system>
SRMS

>  <%Inh>
0%

$$$$
>  <compound>
CC(C)Nc1cc(-c2ccc3c(N)n[nH]c3c2)nc(N)n1

>  <system>
SRMS;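 further: KINOMEscan kinase panel screen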

>  <%Inh>
0%

$$$$

Now take the following compound into account.
Provide only the value of recorded %Inh for Cc1ccc2c(-c3ccncc3)c(-c3ccc(F)cc3)nn2c1.Cl
5%
